- assayedTarget: T1, HLA-A*0201 molecule on human T2 cells (human)
- T1 construct: read out with anti-HLA-A2 antibody BB7.2-PE; also called HLA-A2
- experimentDescription: T2 cells expressing HLA-A*0201, anti-HLA-A2-PE, FACS
The label criterion met is reserved for In vitro binding affinity (relative to reference peptide HIV pol 589-597) strictly under 1; criterion not met covers values equal to or above it.

Solved entries (count: 5):
{"columns": ["binder", "label"],
 "data": [
  ["LMDLSTTEV [FOXM1-B2]", "criterion not met"],
  ["FLDSLGFST [TYMS-H2]", "criterion met"],
  ["FMLGEFLKL [BIRC5-B1]", "criterion met"],
  ["RLSSYLVEI [FOXM1-B]", "criterion not met"],
  ["LMDLSTTPL (Fragment of human FOXM1) [FOXM1-H2]", "criterion not met"]
]}

### Prompt is_below(In vitro binding affinity (relative to reference peptide HIV pol 589-597), 1) for FLPFGFILV [IL13RA2-B] ?
### Response criterion met

### Prompt is_below(In vitro binding affinity (relative to reference peptide HIV pol 589-597), 1) for YLLSAALTI [CHI3L1B3] ?
### Response criterion not met

### Prompt is_below(In vitro binding affinity (relative to reference peptide HIV pol 589-597), 1) for FLDSLGFSL [TYMS-B2] ?
### Response criterion met
